Test system: ADP-induced platelet aggregation (ADP诱导的血小板聚集)
method: Effect of compounds of formula I on ADP-induced platelet aggregation (rats dosed orally, turbidimetric method)
Format: in vivo
protocolConditions: Platelet; male Wistar rat, 10 mg/kg oral gavage, blood taken 2 h after dosing, inducer ADP (final concentration 5 μM), turbidimetry, 37℃; vs control; read-out: inhibition rate
Assign class by inhibition at 10 mg/kg: not lower than 30% means true; lower than 30% means false.

> print(dat)
                                    compound  labelvalue
 1  NNC(=O)C(c1ccc(F)cc1)N1CCc2sccc2C1 (stereo not drawn)        true
 2  O=C(NN=C1CCCc2ccccc21)C(c1ccc(Cl)cc1)N1CCc2sccc2C1 (stereo not drawn)        true
 3  COc1ccc(C=NNC(=O)C(c2cccc(F)c2)N2CCc3sccc3C2)cc1 (stereo not drawn)        true
 4  O=C(NN=Cc1cccc([N+](=O)[O-])c1)C(c1ccc(Cl)c(Cl)c1)N1CCc2sccc2C1 (stereo not drawn)       false
 5  O=C(NN=Cc1ccco1)C(c1cccc(F)c1)N1CCc2sccc2C1 (stereo not drawn)       false
 6  O=C(NN=Cc1ccc(-c2ccc(Cl)cc2)o1)C(c1cccc(Cl)c1)N1CCc2sccc2C1 (stereo not drawn)        true
 7  CC(C)=NNC(=O)C(c1ccc(Cl)cc1)N1CCc2sccc2C1 (stereo not drawn)        true
 8  Cc1ccc(C=NNC(=O)C(c2ccc(Cl)cc2)N2CCc3sccc3C2)cc1 (stereo not drawn)        true
 9  O=C(NN=Cc1ccccc1Cl)C(c1cccc(Cl)c1)N1CCc2sccc2C1 (stereo not drawn)       false
10  O=C(NN=C1CCCCC1)C(c1cccc(Cl)c1)N1CCc2sccc2C1 (stereo not drawn)        true
11  CCCCc1nc(Cl)c(C=NNC(=O)C(c2cccc(Cl)c2)N2CCc3sccc3C2)[nH]1 (stereo not drawn)        true
12  O=C(NN=Cc1ccccc1O)C(c1cccc(F)c1)N1CCc2sccc2C1 (stereo not drawn)        true

###

Listed here: items and their measured maximum aggregation.
System: ADP-induced platelet aggregation (ADP诱导的血小板聚集)
method: Effect of compounds of formula I on ADP-induced platelet aggregation (rats dosed orally, turbidimetric method)
Format: in vivo
protocolConditions: male Wistar rat, 10 mg/kg oral gavage, blood taken 2 h after dosing, inducer ADP (final concentration 5 μM), turbidimetry, 37℃; control 54.8±5.8
readoutKind: maximum aggregation

> print(dat)
                                    compound          readoutkind  recordednumber
 1  Cc1ccc(C=NNC(=O)C(c2ccc(Cl)cc2)N2CCc3sccc3C2)cc1 (stereo not shown)  maximum aggregation            36.0
 2  O=C(NN=C1CCCCC1)C(c1cccc(Cl)c1)N1CCc2sccc2C1 (stereo not shown)  maximum aggregation            31.2
 3  COc1ccc(C=NNC(=O)C(c2cccc(F)c2)N2CCc3sccc3C2)cc1 (stereo not shown)  maximum aggregation            33.9
 4  O=C(NN=Cc1ccc(-c2ccc(Cl)cc2)o1)C(c1cccc(Cl)c1)N1CCc2sccc2C1 (stereo not shown)  maximum aggregation            38.7
 5  O=C(NN=Cc1ccccc1Cl)C(c1cccc(Cl)c1)N1CCc2sccc2C1 (stereo not shown)  maximum aggregation            44.8
 6  NNC(=O)C(c1ccc(F)cc1)N1CCc2sccc2C1 (stereo not shown)  maximum aggregation            28.4
 7  O=C(NN=Cc1ccco1)C(c1cccc(F)c1)N1CCc2sccc2C1 (stereo not shown)  maximum aggregation            41.0
 8  O=C(NN=Cc1ccccc1O)C(c1cccc(F)c1)N1CCc2sccc2C1 (stereo not shown)  maximum aggregation            38.7
 9  O=C(NN=C1CCCc2ccccc21)C(c1ccc(Cl)cc1)N1CCc2sccc2C1 (stereo not shown)  maximum aggregation            36.2
10  CC(C)=NNC(=O)C(c1ccc(Cl)cc1)N1CCc2sccc2C1 (stereo not shown)  maximum aggregation            22.6
11  O=C(NN=Cc1cccc([N+](=O)[O-])c1)C(c1ccc(Cl)c(Cl)c1)N1CCc2sccc2C1 (stereo not shown)  maximum aggregation            36.0
12  COC(=O)[C@H](c1ccccc1Cl)N1CCc2sccc2C1 [硫酸氯吡格雷, reference compound]  maximum aggregation             9.1
13  CCCCc1nc(Cl)c(C=NNC(=O)C(c2cccc(Cl)c2)N2CCc3sccc3C2)[nH]1 (stereo not shown)  maximum aggregation            42.9
